- assay-details: CREB reporter modulators under forskolin, primary screen, cell-based, PC12, CRE-LacZ reporter, forskolin-stimulated (AID 1146);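 also: PC12 cells with 6xCRE LacZ reporter stimulated by forskolin 10 µM; beta-galactosidase reporter signal reflecting CREB driven transcription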
- assay-conditions: luminescence, 4.5 h, higher = more signal, called active from +8 up or from −8 down
Task for the reader: assign each of the following compounds its reported z-score.
Numbers only.

These solved cases illustrate the format of a correct answer.
INSERT INTO results (compound, observed_result) VALUES
  ('COC(=O)CC=C[C@@H](C)[C@@H](C=NO[C@H](C)c1cn([C@H](CO)Cc2ccccc2)nn1)NS(=O)(=O)c1ccc(C)cc1', 0.767),
  ('CCOC(=O)[C@H](Cc1ccccc1)NC(=O)CCC1CC(OC(=O)NCc2ccc3c(c2)OCO3)CC2(CCCC(COC(=O)NCCc3ccccc3OC)O2)O1 (stereo partly drawn)', 0.109);

Moving on to the next compound.
### Prompt Please look up its z-score: COC(=O)CC=C[C@@H](C)[C@@H](C=NO[C@@H]1O[C@H](COC(C)=O)[C@@H](OC(C)=O)[C@H](OC(C)=O)[C@H]1OC(C)=O)NS(=O)(=O)c1ccc(C)cc1
### Response 1.02

====

- assay-details: small-molecule binders of probe aLefty1, primary screen, biochemical, small-molecule microarray, 635/667 nm fluorescence (AID 1153);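 also: score merges spot fluorescence with signal-to-noise ratio from the scanned slide images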
- assay-conditions: higher = more signal
Task for the reader: assign each of the following molecules its reported composite z-score.
Answers are plain numbers.

These solved cases illustrate the format of a correct answer.
INSERT INTO assay_data (molecule, outcome_measure, observed_result) VALUES
  ('CCOC(=O)[C@H](CC(C)C)NC(=O)CCC1CC(OC(=O)NCCc2ccc(F)cc2)CC2(CCCC(COC(=O)NCCc3ccc(Cl)cc3)O2)O1 (some centres not stated)', 'composite z-score', 0.18),
  ('O=C1C=C[C@@H](O)[C@@H]2[C@@H]3C(=O)N(C[C@@H]4CCCO4)C(=O)[C@@H]3CC[C@@H]12', 'composite z-score', 0.0313),
  ('Cc1ccc(S(=O)(=O)N[C@@H]2COC(=O)[C@@H](C)COC(=O)CC=C[C@H]2C)cc1', 'composite z-score', -0.103);

Please look at the items below and tell me composite z-score for each one, in order.
1. O=C1C[C@@H](O)[C@@H](O)[C@@H]2[C@@H]3C(=O)N(Cc4ccc5c(c4)OCO5)C(=O)[C@@H]3CC[C@H]12
2. COC(=O)CC=C[C@@H](C)[C@@H]1C=C[C@H](O)[C@@H](CO)O1
3. COC(=O)CC=C[C@@H](C)[C@@H](C=NO[C@@H]1O[C@H](COC(C)=O)[C@@H](OC(C)=O)[C@H](OC(C)=O)[C@H]1OC(C)=O)NS(=O)(=O)c1ccc(C)cc1
4. COc1cccc([C@H]2Oc3ccc(OC)cc3C(=NO[C@H](C)c3cn([C@H](CO)Cc4ccccc4)nn3)[C@@H]2O)c1

### Response
1: -0.104; 2: -0.472; 3: -0.397; 4: -0.142

====

- experimental-target: Neurogenic locus notch homolog protein 2 (Homo sapiens) (UniProt Q04721)
- Sequence (Q04721 whole entry, looked up): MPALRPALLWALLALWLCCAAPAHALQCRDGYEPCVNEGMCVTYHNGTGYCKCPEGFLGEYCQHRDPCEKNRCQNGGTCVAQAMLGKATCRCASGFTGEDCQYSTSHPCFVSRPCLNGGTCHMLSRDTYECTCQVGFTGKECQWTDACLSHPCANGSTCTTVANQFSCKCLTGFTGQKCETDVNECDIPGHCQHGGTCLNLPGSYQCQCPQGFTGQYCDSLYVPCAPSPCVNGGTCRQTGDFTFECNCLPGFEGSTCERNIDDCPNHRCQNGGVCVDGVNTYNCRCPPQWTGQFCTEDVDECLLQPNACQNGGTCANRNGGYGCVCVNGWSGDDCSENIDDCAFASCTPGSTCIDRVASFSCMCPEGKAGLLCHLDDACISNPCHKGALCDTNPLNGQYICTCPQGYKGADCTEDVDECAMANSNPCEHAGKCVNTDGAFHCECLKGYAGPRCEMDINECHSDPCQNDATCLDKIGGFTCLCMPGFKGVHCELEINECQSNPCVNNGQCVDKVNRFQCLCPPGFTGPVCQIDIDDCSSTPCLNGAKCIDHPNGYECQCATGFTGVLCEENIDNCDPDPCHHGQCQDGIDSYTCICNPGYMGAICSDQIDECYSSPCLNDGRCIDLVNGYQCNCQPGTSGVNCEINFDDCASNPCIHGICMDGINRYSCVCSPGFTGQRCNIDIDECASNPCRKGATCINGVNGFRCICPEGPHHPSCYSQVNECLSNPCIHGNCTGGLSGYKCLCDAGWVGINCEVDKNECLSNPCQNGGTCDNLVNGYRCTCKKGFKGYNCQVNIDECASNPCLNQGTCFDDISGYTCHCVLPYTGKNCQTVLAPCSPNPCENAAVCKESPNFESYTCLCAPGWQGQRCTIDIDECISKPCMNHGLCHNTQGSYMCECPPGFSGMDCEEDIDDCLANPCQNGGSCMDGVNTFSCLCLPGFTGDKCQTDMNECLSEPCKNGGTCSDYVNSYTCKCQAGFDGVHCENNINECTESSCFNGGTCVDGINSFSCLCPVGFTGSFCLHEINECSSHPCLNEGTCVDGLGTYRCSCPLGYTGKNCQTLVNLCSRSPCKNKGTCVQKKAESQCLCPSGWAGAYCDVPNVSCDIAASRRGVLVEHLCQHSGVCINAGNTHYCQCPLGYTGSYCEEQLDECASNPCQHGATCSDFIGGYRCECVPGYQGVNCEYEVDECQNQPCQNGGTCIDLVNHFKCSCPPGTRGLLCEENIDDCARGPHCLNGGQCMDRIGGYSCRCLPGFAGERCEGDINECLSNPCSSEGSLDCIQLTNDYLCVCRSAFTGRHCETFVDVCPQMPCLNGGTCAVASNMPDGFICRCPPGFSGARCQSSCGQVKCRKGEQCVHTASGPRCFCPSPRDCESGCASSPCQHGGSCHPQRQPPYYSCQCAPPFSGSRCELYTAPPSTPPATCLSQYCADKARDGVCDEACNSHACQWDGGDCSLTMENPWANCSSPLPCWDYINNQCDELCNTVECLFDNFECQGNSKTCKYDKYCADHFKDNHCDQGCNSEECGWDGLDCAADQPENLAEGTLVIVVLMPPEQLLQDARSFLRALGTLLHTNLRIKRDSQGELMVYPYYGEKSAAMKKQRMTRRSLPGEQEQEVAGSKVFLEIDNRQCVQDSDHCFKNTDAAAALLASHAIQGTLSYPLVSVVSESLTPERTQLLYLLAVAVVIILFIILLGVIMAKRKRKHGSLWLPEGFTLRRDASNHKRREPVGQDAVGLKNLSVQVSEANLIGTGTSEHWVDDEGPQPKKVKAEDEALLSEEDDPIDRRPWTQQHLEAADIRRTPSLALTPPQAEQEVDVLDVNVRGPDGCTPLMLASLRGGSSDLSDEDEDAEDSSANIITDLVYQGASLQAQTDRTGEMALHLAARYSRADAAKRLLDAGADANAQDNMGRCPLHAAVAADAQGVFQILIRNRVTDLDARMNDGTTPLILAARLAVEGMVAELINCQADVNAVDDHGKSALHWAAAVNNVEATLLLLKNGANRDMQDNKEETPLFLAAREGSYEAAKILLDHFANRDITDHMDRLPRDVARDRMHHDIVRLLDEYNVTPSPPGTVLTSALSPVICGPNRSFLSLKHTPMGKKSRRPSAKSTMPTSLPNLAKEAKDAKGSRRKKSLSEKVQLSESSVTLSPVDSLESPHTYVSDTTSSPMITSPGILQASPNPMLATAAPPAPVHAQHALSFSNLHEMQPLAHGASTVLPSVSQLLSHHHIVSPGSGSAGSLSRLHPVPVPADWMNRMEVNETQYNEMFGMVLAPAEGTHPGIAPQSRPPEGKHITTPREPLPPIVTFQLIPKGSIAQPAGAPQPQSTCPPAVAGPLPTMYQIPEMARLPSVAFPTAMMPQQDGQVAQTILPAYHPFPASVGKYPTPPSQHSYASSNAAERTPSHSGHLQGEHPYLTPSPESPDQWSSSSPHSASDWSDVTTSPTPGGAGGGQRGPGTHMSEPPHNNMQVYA
- assay-details: Notch2 binders on small-molecule microarrays, primary screen, biochemical, small-molecule microarray, 635 nm fluorescence, stem cell growth factors (AID 1073)
- assay-conditions: Notch2 binding, higher = more signal
Task for the reader: assign each of the following compounds its reported composite z-score.

Please look at the items below and tell me composite z-score for each one, in order.
1. Cn1c(=O)n2n(c1=O)[C@H]1[C@H](O)[C@@H]3O[C@@H]3C(=NOCc3ccccc3)[C@H]1CC2
2. O=C1C2=CC[C@H]3C(=O)N(c4cccc(Oc5ccccc5)c4)C(=O)[C@H]3[C@H]2[C@H](O)[C@@H]2O[C@H]12
3. CCCNC(=O)OC[C@H]1O[C@H](CCON=Cc2ccc(C(=O)N3[C@H](c4ccc(C)cc4)[C@@H](C)CC[C@H]3C(=O)OC)cc2)C=C[C@@H]1Oc1ccc(OC)cc1
4. CC(CCN1CCCCc2nc(C)c(C)cc21)=NO[C@H](C)c1cn([C@H](CO)Cc2ccccc2)nn1

### Response
1. 0.0633
2. -0.139
3. 0.458
4. -0.248

Please look at the items below and tell me composite z-score for each one, in order.
1. COC(=O)CC=C[C@@H](C)[C@@H](C=NO[C@@H](C)c1cn([C@H](CO)Cc2ccccc2)nn1)NS(=O)(=O)c1ccc(C)cc1
2. CCOC(=O)[C@H](Cc1ccccc1)NC(=O)CCC1CC(OC(=O)NCCc2ccc(F)cc2)CC2(CCCC(COC(=O)NCc3ccccc3)O2)O1 (some centres not stated)
3. CO[C@H]1COC(=O)[C@H](C)NC(=O)[C@@H](C)COC(=O)[C@H]2CCCN2C(=O)CC=C[C@H]1C

### Response
1: 0.0829; 2: 0.679; 3: 0.338

====

- assay-details: adipocyte viability effects, profiling panel, cell-based, 3T3-L1 adipocytes, calcein-AM fluorescence, 48 h, basal (AID 1163); also: test concentration not given here
- assay-conditions: 3T3-L1 adipocytes viability, higher = more signal
outcome-measure: z-score

INSERT INTO assay_data (molecule, outcome_measure, observed_result) VALUES
  ('COC(=O)CC=C[C@@H](C)[C@@H]1C=C[C@H](O)[C@@H](CO)O1', 'z-score', -1.02),
  ('O=C(C=Cc1ccc2c(c1)OCO2)c1ccc(F)cc1', 'z-score', 0.867),
  ('COc1ccc(O[C@H]2C=C[C@@H](c3ccccc3)O[C@@H]2COC(=O)CCC(C)=NOC[C@@H](O)[C@H]2O[C@@H]3OC(C)(C)O[C@@H]3[C@H]2O)cc1', 'z-score', -0.519);

Moving on to the next molecule.
### Prompt Please look up its z-score: CCOC(=O)[C@H](CC(C)C)NC(=O)CCC1CC(OC(=O)NCc2cccc3ccccc23)CC2(CCCC(COC(=O)NCc3cccc(C(F)(F)F)c3)O2)O1 (some centres undefined)
### Response -0.302

====

- experimental-target: Dickkopf-related protein 1 (Homo sapiens) (UniProt O94907)
- Sequence (O94907 whole entry, looked up): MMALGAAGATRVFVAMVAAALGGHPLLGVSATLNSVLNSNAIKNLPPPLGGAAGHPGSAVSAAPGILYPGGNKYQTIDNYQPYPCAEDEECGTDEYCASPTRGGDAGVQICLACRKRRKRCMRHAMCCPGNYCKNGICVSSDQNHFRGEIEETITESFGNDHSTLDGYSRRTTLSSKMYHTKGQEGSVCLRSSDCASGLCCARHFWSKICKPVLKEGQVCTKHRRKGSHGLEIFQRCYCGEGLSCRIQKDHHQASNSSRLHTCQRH
- assay-details: DKK1 binders on small-molecule microarrays, primary screen, biochemical, small-molecule microarray, 635 nm fluorescence scan (AID 1106);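 also: score merges emission near 667 nm with signal to noise over three replicate slides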
- assay-conditions: DKK1 binding, higher = more signal
Task for the reader: assign each of the following compounds its reported composite z-score.
Give bare numbers.

These solved cases illustrate the format of a correct answer.
INSERT INTO measurements (compound, observed_result) VALUES
  ('O=C(NN=C1C[C@@H](O)[C@@H](O)[C@@H]2[C@@H]3C(=O)N(C[C@@H]4CCCO4)C(=O)[C@@H]3CC[C@@H]12)OCc1ccccc1', 0.486),
  ('CO[C@H]1COC(=O)CC=C[C@@H](C)[C@H](OC)COC(=O)CCC[C@@H]1C', 1.19);

Please look at the items below and tell me composite z-score for each one, in order.
1. O=C1[C@H]2[C@H]3[C@H](O)[C@H](O)CC(=NOCc4ccccc4)[C@H]3CC[C@H]2C(=O)N1Cc1ccc2c(c1)OCO2
2. CC(C)=NO[C@H](C)c1cn([C@H](CO)Cc2ccccc2)nn1
3. CC(CCN1CCCCc2nc(C)c(C)cc21)=NO[C@@H](C)c1cn([C@H](CO)Cc2ccccc2)nn1
4. COc1ccc(C#C[C@@H]2C=C[C@H](OC(C)=O)[C@@H](COC(C)=O)O2)cc1
5. CO[C@H](C1CCCCC1)[C@H](C)C=CCC(=O)OCCCc1ccccc1
6. CCOC(=O)[C@H](CC(C)C)NC(=O)CCC1CC(OC(=O)NCCc2ccc(F)cc2)CC2(CCCC(COC(=O)NCCc3ccc(Cl)cc3)O2)O1 (stereo partly drawn)

### Response
1: 0.582; 2: 0.291; 3: 1.17; 4: 0.476; 5: 0.287; 6: 0.483

====

- experimental-target: Epidermal growth factor receptor (Homo sapiens) (UniProt P00533)
- Sequence (P00533 whole entry, looked up): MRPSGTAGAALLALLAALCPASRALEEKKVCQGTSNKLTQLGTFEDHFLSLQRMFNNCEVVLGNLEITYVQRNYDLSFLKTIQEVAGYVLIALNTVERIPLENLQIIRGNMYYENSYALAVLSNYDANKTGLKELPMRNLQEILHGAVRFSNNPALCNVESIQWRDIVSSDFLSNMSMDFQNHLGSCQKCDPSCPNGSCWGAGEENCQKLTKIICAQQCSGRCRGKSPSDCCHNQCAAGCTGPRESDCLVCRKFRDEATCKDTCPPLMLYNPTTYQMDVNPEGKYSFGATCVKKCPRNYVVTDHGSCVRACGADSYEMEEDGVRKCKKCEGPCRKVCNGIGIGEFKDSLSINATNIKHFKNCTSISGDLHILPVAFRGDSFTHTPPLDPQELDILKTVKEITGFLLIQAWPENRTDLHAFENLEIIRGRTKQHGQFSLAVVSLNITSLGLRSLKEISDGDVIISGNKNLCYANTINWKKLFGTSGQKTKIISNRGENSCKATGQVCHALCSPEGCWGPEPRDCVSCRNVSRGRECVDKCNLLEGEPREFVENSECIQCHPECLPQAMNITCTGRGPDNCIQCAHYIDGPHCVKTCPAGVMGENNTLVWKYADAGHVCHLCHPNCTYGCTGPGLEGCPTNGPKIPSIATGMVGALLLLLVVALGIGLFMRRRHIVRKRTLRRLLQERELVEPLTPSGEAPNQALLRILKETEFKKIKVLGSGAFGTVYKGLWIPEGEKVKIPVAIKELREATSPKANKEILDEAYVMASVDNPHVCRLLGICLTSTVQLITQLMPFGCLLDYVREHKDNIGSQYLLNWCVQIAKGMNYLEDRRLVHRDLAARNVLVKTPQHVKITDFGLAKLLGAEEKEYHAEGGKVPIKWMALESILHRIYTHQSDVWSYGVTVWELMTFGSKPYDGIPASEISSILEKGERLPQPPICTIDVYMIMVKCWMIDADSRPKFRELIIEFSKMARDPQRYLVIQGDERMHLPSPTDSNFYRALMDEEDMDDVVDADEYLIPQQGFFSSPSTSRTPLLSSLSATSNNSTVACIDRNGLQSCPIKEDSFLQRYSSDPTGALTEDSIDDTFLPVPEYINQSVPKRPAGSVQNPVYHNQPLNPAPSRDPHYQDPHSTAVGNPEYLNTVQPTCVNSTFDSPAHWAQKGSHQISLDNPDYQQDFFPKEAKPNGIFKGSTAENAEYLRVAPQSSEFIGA
- assay-details: EGFR binders on small-molecule microarrays, primary screen, biochemical, small-molecule microarray, 635 nm fluorescence (AID 1104);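 also: score merges 667 nm emission intensity with spot signal to noise over triplicate slides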
- assay-conditions: EGFR binding, higher = more signal
Task for the reader: assign each of the following compounds its reported composite z-score.
One number for each entry.

Please look at the items below and tell me composite z-score for each one, in order.
1. Cc1ccc(S(=O)(=O)N[C@H]2COC(=O)CC=C[C@H](C)[C@@H](NS(=O)(=O)c3ccc(C)cc3)COC(=O)CC=C[C@@H]2C)cc1
2. COC(=O)CC=C[C@H](C)[C@@H](OCc1cccc(Br)c1)[C@@H](C)[C@H](OC)C1CCCCC1
3. CCc1cc2c(nc1CC)CCN(CCC(C)=NOC[C@H]1O[C@H](c3ccccc3)C=C[C@@H]1Oc1ccc(OC)cc1)C2
4. CCCCc1nc2c(c3c1C[C@H](C)OC3)CN(CCOc1ccccc1)CC2

### Response
[0.364, 0.153, -0.0924, 0.681]

Please look at the items below and tell me composite z-score for each one, in order.
1. C[C@@H]1CC[C@H]2C(=O)O[C@@H](Cc3ccccc3)CN2[C@H]1c1ccc(Br)cc1
2. COC(=O)[C@H]1[C@@H](O)[C@@]2(O)c3ccccc3O[C@@]2(c2ccccc2)[C@@H]1c1ccccc1
3. CCOC(=O)[C@H](CC(C)C)NC(=O)CCC1CC(OC(=O)NCc2cccc3ccccc23)CC2(CCCC(COC(=O)NCCOc3ccccc3)O2)O1 (stereo partly drawn)
4. O=c1n(Cc2cc3c(cc2Cl)OCO3)c(=O)n2n1CC[C@@H]1C(=NOC[C@@H](O)COCc3ccco3)[C@H]3O[C@H]3[C@@H](O)[C@@H]12

### Response
1: 0.389; 2: 0.396; 3: 0.557; 4: 0.349
